- target: LRRK2 (Homo sapiens (Human), UniProt Q5S007, G2019S)
- Sequence (Q5S007 970-2527 G2019S limits assumed): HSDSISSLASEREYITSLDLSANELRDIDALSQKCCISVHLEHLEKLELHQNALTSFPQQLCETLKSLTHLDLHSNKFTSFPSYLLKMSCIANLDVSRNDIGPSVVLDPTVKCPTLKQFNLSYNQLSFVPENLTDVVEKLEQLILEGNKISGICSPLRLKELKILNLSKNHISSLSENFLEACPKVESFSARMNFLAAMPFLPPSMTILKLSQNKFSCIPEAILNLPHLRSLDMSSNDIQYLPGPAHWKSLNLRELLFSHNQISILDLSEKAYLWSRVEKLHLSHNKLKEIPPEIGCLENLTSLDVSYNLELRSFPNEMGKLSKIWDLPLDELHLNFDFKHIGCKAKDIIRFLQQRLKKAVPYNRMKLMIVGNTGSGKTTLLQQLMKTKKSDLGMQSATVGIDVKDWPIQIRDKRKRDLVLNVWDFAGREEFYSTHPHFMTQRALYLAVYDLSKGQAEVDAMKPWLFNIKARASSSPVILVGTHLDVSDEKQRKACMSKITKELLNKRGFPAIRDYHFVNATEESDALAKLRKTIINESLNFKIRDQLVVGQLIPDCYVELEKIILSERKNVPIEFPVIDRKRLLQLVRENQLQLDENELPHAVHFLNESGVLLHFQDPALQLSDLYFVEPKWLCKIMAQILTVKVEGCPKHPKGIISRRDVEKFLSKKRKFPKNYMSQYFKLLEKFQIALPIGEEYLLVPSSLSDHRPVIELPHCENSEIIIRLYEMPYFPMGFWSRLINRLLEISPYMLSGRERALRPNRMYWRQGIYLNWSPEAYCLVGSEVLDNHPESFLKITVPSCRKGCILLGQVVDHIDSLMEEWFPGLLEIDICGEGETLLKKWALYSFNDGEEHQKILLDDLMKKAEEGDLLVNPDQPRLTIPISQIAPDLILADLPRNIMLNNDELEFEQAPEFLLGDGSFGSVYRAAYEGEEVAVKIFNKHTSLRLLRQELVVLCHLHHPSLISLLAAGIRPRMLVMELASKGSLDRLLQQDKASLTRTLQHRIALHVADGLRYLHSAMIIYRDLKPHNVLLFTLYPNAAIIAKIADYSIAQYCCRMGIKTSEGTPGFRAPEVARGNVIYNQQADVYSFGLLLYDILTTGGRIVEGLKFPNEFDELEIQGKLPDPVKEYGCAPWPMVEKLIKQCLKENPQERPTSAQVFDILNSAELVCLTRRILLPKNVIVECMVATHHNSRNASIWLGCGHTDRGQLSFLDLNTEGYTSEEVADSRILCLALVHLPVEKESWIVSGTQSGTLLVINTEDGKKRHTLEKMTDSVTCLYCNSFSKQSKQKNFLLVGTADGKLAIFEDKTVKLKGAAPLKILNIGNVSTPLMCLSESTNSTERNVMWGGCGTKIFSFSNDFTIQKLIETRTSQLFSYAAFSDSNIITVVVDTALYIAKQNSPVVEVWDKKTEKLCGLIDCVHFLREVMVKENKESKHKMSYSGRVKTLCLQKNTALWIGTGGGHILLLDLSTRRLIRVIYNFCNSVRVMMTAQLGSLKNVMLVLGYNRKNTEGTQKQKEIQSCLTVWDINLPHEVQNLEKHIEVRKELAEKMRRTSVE
- test: In Vitro LRRK2 LabChip Assay
- Assay type: biochemical
- measurement-context: Table 5
- Description: In Vitro LRRK2 LabChip Assay This assay was used to determine a compound's potency in inhibiting activity of LRRK2 by determining, Kiapp, IC50, or percent inhibition values. […] The relative amounts of each were quantitated by fluorescence intensity. LRRK2 Ki was determined according to the equation: Y=V0*(1−((x+Ki*(1+S/Km)+Et)/(2*Et)−(((x+Ki*(1+S/Km)+Et)^2−(4*Et*x))^0.5)/(2*Et))). […] The plate was incubated for 2 hours in the dark. […] Results were read on the LabChip 3000. […]
Please respond with reported pKi for every item in the list.
The read-out pKi is expressed as -log10 of concentration in moles per litre.

The reported pKi of the compound CCNc1nc(Nc2cc(OC)c(C(=O)N3CCOCC3)cc2Cl)ncc1Cl was 8.30

pKi in this record for CCNc1nc(Nc2cc(F)c(C(=O)N3CCOCC3)cc2OC)ncc1C(F)(F)F : 8.70

Data point: COc1cc(Nc2ncc(Cl)c(OC)n2)c(Cl)cc1C(=O)N1CCOCC1 ; pKi = 7.33

// COc1cc(C(=O)N2CCOCC2)ccc1Nc1ncc(C(F)(F)F)c(OC)n1 : pKi value = 7.70

Please fill in: pKi reported for COc1nc(Nc2ccc(C(=O)N3CCOCC3)cc2Cl)ncc1Cl = 7.33
